molecular target: FHA variant E12 (Akt1-pTBD) (yeast); assay: ELISA; competition: FHA clone binding to immobilized phosphorylated Akt1 peptide in the presence of free phosphorylated peptide; IC50
Non-standard residues stand in square brackets, D forms with d. *: point of attachment. Biotin = O=C1N[C@H]2[C@H](CS[C@H]2CCCCC(=O)*)N1; pT = C[C@@H](OP(=O)(O)O)[C@H](N)C(=O)O
quantityMeasured: IC50
Give the value; after it, write the unit.

Incoming: Param item = Biotin-KDGATMK[pT]FCGTPEY-NH2 (not fully specified (residue 12)) [Akt1-pT308 peptide] ; retrieve measured IC50.
Outgoing: 45 nM

meta.source: paper PMC6274716
